Values compiled from patent US10160762B2.

SYSTEM_TESTED: human PDE2A1 (Homo sapiens)
Construct: GST; purchased BPS Bioscience (San Diego, Calif.) 60020; host or cells: insect cells
Sequence (O00408 1-920 isoform O00408-2): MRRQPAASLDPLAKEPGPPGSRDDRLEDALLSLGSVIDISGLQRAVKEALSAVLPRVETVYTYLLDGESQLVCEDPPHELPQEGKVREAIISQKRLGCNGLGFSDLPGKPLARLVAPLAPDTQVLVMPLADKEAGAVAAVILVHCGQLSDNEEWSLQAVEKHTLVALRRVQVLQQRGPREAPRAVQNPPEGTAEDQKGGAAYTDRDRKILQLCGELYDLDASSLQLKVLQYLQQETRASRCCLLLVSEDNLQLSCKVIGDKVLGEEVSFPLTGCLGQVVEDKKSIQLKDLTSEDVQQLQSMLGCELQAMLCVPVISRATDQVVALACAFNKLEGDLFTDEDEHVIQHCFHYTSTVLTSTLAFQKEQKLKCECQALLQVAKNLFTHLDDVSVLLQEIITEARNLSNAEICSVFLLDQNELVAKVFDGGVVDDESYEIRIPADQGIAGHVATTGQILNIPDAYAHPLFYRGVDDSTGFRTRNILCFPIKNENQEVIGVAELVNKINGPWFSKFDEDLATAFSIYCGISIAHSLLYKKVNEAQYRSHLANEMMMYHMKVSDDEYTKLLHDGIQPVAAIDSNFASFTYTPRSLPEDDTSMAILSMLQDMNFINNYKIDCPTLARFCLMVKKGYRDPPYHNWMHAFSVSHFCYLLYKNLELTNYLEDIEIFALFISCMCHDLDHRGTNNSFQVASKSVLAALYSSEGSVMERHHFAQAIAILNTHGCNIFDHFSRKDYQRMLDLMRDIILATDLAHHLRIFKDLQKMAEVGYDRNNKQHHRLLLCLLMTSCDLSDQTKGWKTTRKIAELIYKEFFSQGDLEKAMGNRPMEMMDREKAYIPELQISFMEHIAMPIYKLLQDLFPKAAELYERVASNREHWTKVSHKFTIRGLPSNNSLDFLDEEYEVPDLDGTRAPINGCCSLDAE
PROTOCOL_TEXT: IMAP FP PDE assay, human PDE2A1
Type: biochemical
ASSAY_SETUP: Lab B; read-out: Human PDE2 Ki (nM) Lab B
MEASUREMENT_KIND: Ki (nM)

{"MOLECULE": "Cc1nc2c(c(C(F)F)nn2C(C)c2ccc(C(F)(F)F)cc2Cl)c(=O)[nH]1 (single isomer, unassigned) [Example 183]", "Ki / nM": 547}
{"MOLECULE": "CC(c1ccc(C(F)(F)F)cc1)n1nc(-c2nnco2)c2c(=O)[nH]c(CC3CCCC3)nc21 (single isomer, unassigned) [Example 342]", "Ki / nM": 2.5}
{"MOLECULE": "Cc1nc2c(c(-c3cn[nH]c3)nn2C(C)c2ccc(C(F)(F)F)cc2)c(=O)[nH]1 (single isomer, unassigned) [Example 237]", "Ki / nM": 2.5}
{"MOLECULE": "Cc1nc2c(c(C(F)F)nn2C(C)c2ccc(OC(F)(F)F)cc2)c(=O)[nH]1 (single isomer, unassigned) [Example 178]", "Ki / nM": 0.72}

[a] Cc1nc2c(c(CO)nn2C(C)c2ccc(OC(F)F)cc2)c(=O)[nH]1 (single isomer, unassigned) [Example 21]
[b] Cc1ccc(C(C)n2nc(CO)c3c(=O)[nH]c(C)nc32)cc1 (stereo not shown)
[c] Cc1nc2c(c(CO)nn2C(c2ccc(OC(F)(F)F)c(F)c2)C2CC2)c(=O)[nH]1 (single isomer, unassigned) [Example 93]
Ask | Sort these molecules on Ki so the largest reading comes first. The labels, placed in the requested order, form the answer.
Reply | b, a, c
(b: 28 nM, a: 3.5 nM, c: 1.7 nM)
